- target entity: full-length human PD1 expressed on the surface of NS1 cells (human, UniProt Q15116)
- Sequence (Q15116 25-288): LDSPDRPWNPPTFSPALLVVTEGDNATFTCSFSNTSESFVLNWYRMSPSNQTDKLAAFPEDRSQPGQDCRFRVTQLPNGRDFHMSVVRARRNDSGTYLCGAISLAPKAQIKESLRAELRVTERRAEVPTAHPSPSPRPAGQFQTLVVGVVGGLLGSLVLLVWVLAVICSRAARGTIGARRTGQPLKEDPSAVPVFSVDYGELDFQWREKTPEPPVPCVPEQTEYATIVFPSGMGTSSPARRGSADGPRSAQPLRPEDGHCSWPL
- experiment summary: flow cytometry on cells
observed property: binding result

[[record]]
binder = "M1-6 anti-PD1 antibody (human IgG4/kappa, C-terminal 6xHis) (antibody, V domains shown) VH: QVQLVESGGDVVQSGGSLRLSCAVSGVVFSDYGFEWVRQAPGKGLEWVAVIWYDGSRKHYADSVQGRFTISRDNFRNMLYLQMTGLRVEDTAKYYCTRSHSHEDYWGQGTLVTVSS VL: EIVLTQSPATLSLSPGERATLSCGASQNIDNSLAWFQQKPGQAPRLIIYDASKRATGIPARFSGSGSGTDFTLTISTLEPEDFAVYYCQQRDHWPLNFGGGTKVEVK"
observed_property = "binding result"
assay_result = "binds"

[[record]]
binder = "M1-1 anti-PD1 antibody (human IgG4/kappa, C-terminal 6xHis) (antibody, V domains shown) VH: QVQLVESGGDVVQPGGSLRLSCAASGVAFRDYGMHWVRQAPGKGLEWVAVIWYDGSKKYYGDSVKGRFTVSRDNSKNMLYLEMNGLKAEDTAMYYCARNDDYWGQGTLVTVSS VL: EIVLTQSPATLSLSPGERATLSCRASQSVSNSLSWYQQNPGQSPRLIIYDTSKRATGIPARFSGSGSGTDFTLTINNLETEDFAVYYCHQRSDWPLTFGGGTKVEIK"
observed_property = "binding result"
assay_result = "binds"

[[record]]
binder = "M1-2 anti-PD1 antibody (human IgG4/kappa, C-terminal 6xHis) (antibody, V domains shown) VH: QVQLVESGGDVVQPGGSLRLSCAASGVAFSDYGMEWVRQAPGKGLEWLAVIWYDGSRKHYADSVKGRFTISRDNSKNILYLQMNSLRAEDTAMYYCARCHSKDDYWGQGTLVTVSS VL: EIVLTQFPATLSLSPGERATLSCRTSQNIDSDLAWFQQKPGQAPRLIIYDASNRATGIPARFSGGGSGTDFTLTITSLEPEDFAVYYCQQRTTWPLTFGGGTKVEIK"
observed_property = "binding result"
assay_result = "binds"


Source of measurements: paper doi:10.1101/2020.12.12.421834
